system: RPMI-8226 leukemia; experiment: NCI-60 one-dose screen, 48 h (100 = growth as untreated, 0 = no growth, -100 = all killed); conditions: 10 µM
Compounds without any hit were thinned out: in the full panel of roughly 83,000, 20% have a hit.
Reported growth is given for each of the following compounds.
Unit % implied. Number only.

Worked set:
>>> observed_result("COc1ccc(C(=O)/C=C/c2ccc(OCc3cccc(C(F)(F)F)c3)c(OC)c2)cc1OC")
29.7
>>> observed_result("O=C(/C=C/c1cccc(Oc2ccc(Cl)cc2)c1)c1ccccc1")
0.961
>>> observed_result("CC(=O)/C=C/c1ccc(N(CCO)Cc2ccc(C(C)(C)C)cc2)cc1")
84.7

Qu. Which growth is reported for this compound? `CC(=O)/C=C/c1ccc(OCc2ccc(Cl)cc2)cc1`
Ans. 87.9

---

system: MDA-MB-231 breast; assay: NCI-60 one-dose screen, 48 h; conditions: 10 µM unless noted
This is part of a sample that, as a whole, favours compounds with a hit. Of some 83,000 tested, about 20% had one in any assay. Activity calls are given as the source filed them. Rule for the calls: active = growth percent below 10; inactive = the rest.
Tick one outcome: TRUE (active), FALSE (inactive)

Use these answered entries as a reference point.
>>> discrete_label("Cn1cc(-c2nonc2-c2cn(C)c3ccc(Br)cc23)c2ccccc21")
"FALSE"
>>> discrete_label("O=C1c2cccc3cccc(c23)C(=O)N1N1C(=O)c2cccc3c(N4CCNCC4)ccc(c23)C1=O")
"FALSE"
>>> discrete_label("Cc1ccc(-c2nc([P+](c3ccccc3)(c3ccccc3)c3ccccc3)c(Nc3ccccc3)o2)cc1")
"TRUE"
>>> discrete_label("O=C1Nc2ccccc2/C1=C/c1cccn1CCCCCn1c2ccccc2c(=O)c2ccccc21")
"FALSE"
>>> discrete_label("O=C(c1ccc(Nc2nccc(NCCCNc3ccnc4cc(Cl)ccc34)n2)cc1)N1CCCCC1")
"FALSE"
>>> discrete_label("O=c1oc2c(Br)cc(Br)cc2cc1-c1cc(-c2ccc(-c3cc(-c4cc5cc(Br)cc(Br)c5oc4=O)nc(-c4cc5cc(Br)cc(Br)c5oc4=O)c3)cc2)cc(-c2cc3cc(Br)cc(Br)c3oc2=O)n1")
"FALSE"

Qu. Outcome logged for `CCCCCCCCCCCCC[C@H](O)C[C@H](O)[C@H](C)N` in this assay:
Ans. FALSE

Qu. Outcome logged for `CCN(C(=O)N1CCN(c2cc3c(cc2F)c(=O)c(C(=O)O)cn3C2CC2)CC1)c1nc(-c2ccccc2)cs1` in this assay:
Ans. TRUE

---

tested on: HT29 colon; experiment: NCI-60 one-dose screen, 48 h; settings: 10 µM unless noted
The panel holds about 83,000 compounds, 20% with a hit somewhere; the sample as a whole holds those more often. Activity calls are given as the source filed them. The calls were made as follows: active = growth percent below 10; inactive = the rest.
Tick one outcome: active, inactive

Use these answered entries as a reference point.
>>> discrete_label("Nc1c(C(=O)Nc2ccncc2)sc2nc3c(cc12)CCCCCCCC3")
"active"
>>> discrete_label("N#C/C(=N\\Nc1ccc(Cl)cc1)C(=O)Nc1cc(-c2ccccc2)nn1-c1ccccc1")
"inactive"
>>> discrete_label("Cc1ccc(/C=C(\\C#N)c2cc3ccccc3[nH]2)cc1")
"inactive"
>>> discrete_label("CCCNNC(=O)/C=C/c1ccc(CNCCc2c(C)[nH]c3ccccc23)cc1")
"active"
>>> discrete_label("COc1ccc(/C=C(\\C#N)c2cc3ccccc3[nH]2)cc1")
"active"

As a next step, examine the compound that follows.
Qu. Outcome logged for `O=C(N=Nc1c(O)[nH]c2ccccc12)Nc1ccc(Br)cc1` in this assay:
Ans. inactive

---

test system: MDA-MB-435 melanoma; assay: NCI-60 one-dose screen, 48 h; details: 10 µM unless noted
The panel holds about 83,000 compounds, 20% with a hit somewhere; the sample as a whole holds those more often. The source made the active and inactive calls. The calls were made as follows: active = growth percent below 10; inactive = the rest.
Tick one outcome: active, inactive

Use these answered entries as a reference point.
>>> discrete_label("Cc1ccc(-c2nc3nc(-c4ccccc4)nc(N4CCN(S(=O)(=O)c5ccccc5)CC4)c3o2)cc1")
"inactive"
>>> discrete_label("COc1ccc(S(=O)(=O)Nc2cc(Sc3cccc4cccnc34)c(O)c3ccccc23)cc1")
"inactive"
>>> discrete_label("COC(=O)c1nc(-c2ccc(C)cc2)oc1S(=O)(=O)c1ccc(Cl)cc1")
"inactive"
>>> discrete_label("CCOC(=O)c1ccc(Nc2ncnc3c2cnn3-c2cccc(F)c2)cc1")
"inactive"
>>> discrete_label("C=C(CNCCO)[C@@H]1CC[C@]2(CO)CC[C@]3(C)[C@H](CC[C@@H]4[C@@]5(C)CCC(NCCc6ccc(O)cc6)C(C)(C)[C@@H]5CC[C@]43C)[C@@H]12 (some centres undefined)")
"active"
>>> discrete_label("O=c1ccc2nc(-c3ccccn3)nn(-c3ccccc3)c-2c1")
"inactive"
>>> discrete_label("Cn1ccnc1CN1CCSC(C(=O)Nc2ccccc2)C1 (centres undefined)")
"inactive"
>>> discrete_label("Cc1ccc(NC(=O)N/C(N)=N/c2nc(=O)c3ccccc3s2)cc1")
"inactive"

As a next step, examine the compound that follows.
Qu. Outcome logged for `CCCCCCCC/C=C\CCCCCCCCOc1ccccc1CC(=O)NCC[N+]1(C)CCOCC1` in this assay:
Ans. inactive

---

test system: OVCAR-8 ovarian; assay: NCI-60 one-dose screen, 48 h (100 = growth as untreated, 0 = no growth, -100 = all killed); conditions: 10 µM unless noted
Compounds without any hit were thinned out: in the full panel of roughly 83,000, 20% have a hit. Activity calls are given as the source filed them. The calls were made as follows: active = growth percent below 10; inactive = the rest.
Value kind: growth

>>> observed_result("CCOC(=O)CC1CSC(c2cccc(Cl)c2)=N1 (stereo not given)")
"102% (inactive)"
>>> observed_result("C=C1C(=O)O[C@H]2[C@H]1CC/C(COC(=O)NCc1ccc(Cn3c(=O)sn(CCCI)c3=O)cc1)=C\\CC[C@@]1(C)O[C@@H]21")
"37.7% (inactive)"
>>> observed_result("CN(C)CCCn1c2nc(=O)[nH]c(=O)c-2nc2cc(Cl)c(Cl)cc21")
"50% (inactive)"
>>> observed_result("COc1ccc2c(O)c(/C=C3\\N=Nc4nc(C)ccc43)oc2c1CC1CCNCC1")
"68.4% (inactive)"

Qu. Record lookup: for OVCAR-8 ovarian, what growth belongs to COC1/C=C/OC2(C)Oc3c(C)c(O)c4c(O)c(c(C=NOC(c5ccccc5)c5ccccc5)c(O)c4c3C2=O)NC(=O)/C(C)=C/C=C/C(C)C(O)C(C)C(O)C(C)C(OC(C)=O)C1C (stereo not given) ?
Ans. 24.8% (inactive)

---

system: MCF7 breast; assay: NCI-60 one-dose screen, 48 h (100 = growth as untreated, 0 = no growth, -100 = all killed); settings: 10 µM unless noted
Compounds without any hit were thinned out: in the full panel of roughly 83,000, 20% have a hit.
Value kind: growth (%)
Unit % implied. Number only.

Qu. Which growth is reported for this compound? `NC(=O)c1c(NC(=O)/C=C/c2cccs2)sc2c1CCC(=O)C2`
Ans. 14.1

Qu. Which growth is reported for this compound? `CCN(CC)CC(=O)Nc1ccc2ncnc(Nc3ccc(Oc4cccc(F)c4)c(Cl)c3)c2c1`
Ans. 52.9

Qu. Which growth is reported for this compound? `Oc1ccccc1C=Nc1ccc(N2CCN(c3ccccc3)CC2)cc1`
Ans. 84

Qu. Which growth is reported for this compound? `COc1ccc(C/C(C)=C(\c2ccc(O)cc2)c2ccc(OCCCN(C)C)cc2)cc1`
Ans. 41.1

Qu. Which growth is reported for this compound? `COc1nc2ccc(C)cc2cc1/C=[N+](\[O-])c1ccccc1`
Ans. 58.6

---

Reported growth is given for each of the following molecules.
test system: MALME-3M melanoma; assay: NCI-60 one-dose screen, 48 h (100 = growth as untreated, 0 = no growth, -100 = all killed); details: 10 µM unless noted
About 83,000 compounds went through this panel and 20% of them were active in at least one assay; those are over-represented in the sample as a whole.
Unit % implied. Number only.

Worked set:
>>> observed_result("COc1ccc(C(c2cc(OC)c(OC)c(OC)c2)n2ccnc2)cc1O (centres undefined)")
66.6
>>> observed_result("COc1ccc(CCNC(=O)COc2cc3c(Nc4ccc(F)c(Cl)c4)ncnc3cc2OC)cc1OC")
86.9
>>> observed_result("C=C(C)[C@@H]1CC[C@]2(C(=O)N3CCN(C)CC3)CC[C@]3(C)[C@H](CC[C@@H]4[C@@]5(C)CC(CCCNC(C)=O)(CCCNC(C)=O)[C@H](OC(C)=O)C(C)(C)[C@@H]5CC[C@]43C)[C@@H]12")
98

The record that follows has no growth shown yet.
Qu. Which growth is reported for this molecule? `Cc1nc2sc(C(=O)Nc3cccc4ccccc34)c(N)c2cc1C(=O)/C=C/c1ccccc1`
Ans. 34

---

system: HOP-62 NSCLC; test: NCI-60 one-dose screen, 48 h (100 = growth as untreated, 0 = no growth, -100 = all killed); conditions: 10 µM unless noted
Compounds without any hit were thinned out: in the full panel of roughly 83,000, 20% have a hit.
Reported growth is given for each of the following compounds.
Unit % implied. Number only.

Worked set:
>>> observed_result("C=C(CNCCc1ccc(O)cc1)[C@@H]1CC[C@]2(CO)CC[C@]3(C)[C@H](CC[C@@H]4[C@@]5(C)CCC(NCCc6ccc(O)cc6)C(C)(C)[C@@H]5CC[C@]43C)[C@@H]12 (some centres undefined)")
-90.7
>>> observed_result("COc1cc(/C=C2\\CCC/C(=C\\c3cc(CN4CCCC4)c(O)c(OC)c3)C2=O)cc(CN2CCCC2)c1O")
102
>>> observed_result("CN1CCCc2cc(/C=C3\\SC(=S)N(C(Cc4ccc(O)cc4)C(=O)O)C3=O)ccc21 (centres undefined)")
109

Qu. Which growth is reported for this compound? `CCN(CC)CC#CCOC(=O)[C@]1(C)CCC[C@]2(C)c3ccc(C(C)C)cc3CC[C@@H]12`
Ans. 96.2
